- Test system: SW-620 colon
- Protocol Text: NCI-60 one-dose screen, 48 h (100 = growth as untreated, 0 = no growth, -100 = all killed)
- Measurement Context: 10 µM unless noted
This is part of a sample that, as a whole, favours compounds with a hit. Of some 83,000 tested, about 20% had one in any assay.
Experimental Readout: growth (%)

Compound	Experimental Result
CCCCCCCCOc1ccc(/C=N/Nc2cc(C)nc3ccc(Br)cc23)cc1	8.02
N#Cc1c(NC(=O)NCc2ccccc2)sc2c1CCCC2	24
C=CCn1c(-c2ccc(-c3nc4ccc(C)cc4[nH]3)cc2)n[nH]c1=S	112
COC(=O)C(OC(C)=O)C(OC(C)=O)c1ccc(OC)c(OC)c1 (stereo not given)	118
N#CC1=C(/N=C/c2ccccc2)Oc2c(ccc3ccccc23)C1c1ccc([N+](=O)[O-])cc1 (stereo not given)	93
N#CC(C(=O)/C(=N/NC(=O)c1ccccc1O)C(C#N)c1ccccc1)c1ccccc1 (stereo not given)	80.2
Cn1ccc2c1CC1CN(Cc3ccco3)C(=O)C1C2C(=O)O (stereo not given)	98.7
O=c1c2c(c(=O)n1O)c1c3ccc[nH]c3nc1c1nc3[nH]cccc3c12	62.4
O=C(Nc1cccc(C(=O)N2CCc3ccc(Cl)cc32)c1)c1ccco1	29.8
CN(C)c1ccc(C2C(C#N)=C(/N=C/c3ccccc3)Oc3c2ccc2ccccc32)cc1 (stereo not given)	41

====

- Tested on: EKVX NSCLC
- Protocol Text: NCI-60 one-dose screen, 48 h (100 = growth as untreated, 0 = no growth, -100 = all killed)
- Measurement Context: 10 µM unless noted
Compounds without any hit were thinned out: in the full panel of roughly 83,000, 20% have a hit.

Compound	Tested On	growth, %
COc1cc(/C=C2\COc3ccc(-c4ccccc4)cc3C2=O)cc(OC)c1	EKVX NSCLC	102
CCCCC/C=C/C(C)=C/C1CC(C)C/C=C/CCC(O)C(OC(N)=O)CCC(C)CC(O)C(C)C(=O)O1 (stereo not given)	EKVX NSCLC	91.9
COc1cc(CC(=O)c2ccc(O)c(OC)c2)ccc1O	EKVX NSCLC	111
CN(C)CCC(=O)c1ccc([N+](=O)[O-])cc1	EKVX NSCLC	106
O=S(=O)(NCCCNc1nccc(-c2c(-c3cccc(F)c3)nc3sccn23)n1)c1cccc2ccccc12	EKVX NSCLC	56.1

====

- Tested on: HT29 colon
- Protocol Text: NCI-60 one-dose screen, 48 h (100 = growth as untreated, 0 = no growth, -100 = all killed)
- Measurement Context: 10 µM unless noted
This is part of a sample that, as a whole, favours compounds with a hit. Of some 83,000 tested, about 20% had one in any assay.
Please assign 0 whenever growth is at or above 40%, and 1 whenever it is below.

Chemical Structure	Discrete Label
COc1cc(/C=C\c2cc(OC)c(OC)c(OC)c2)cc(N)c1OC	0
COc1cc(NC(=O)CSc2nc3ccc(C)cc3c(=O)n2Cc2ccccc2)cc(OC)c1OC	0
COc1cc2c(=O)n(CCN(C)C)c3c4cc5c(cc4ccc3c2cc1OC)OCO5	1
COc1ccc(NC(N)=NCCCOc2ccc(F)cc2)cc1	1

====

- System: ACHN renal
- Protocol Text: NCI-60 one-dose screen, 48 h
- Measurement Context: 10 µM unless noted
Compounds without any hit were thinned out: in the full panel of roughly 83,000, 20% have a hit. Activity calls are given as the source filed them. Rule for the calls: active = growth percent below 10; inactive = the rest.
Possible outcomes: active, inactive

Compound	Discrete Label
COc1ccc(C(=O)/C=C/c2cc3ccccc3n3nnnc23)cc1	inactive
CN(C)c1ccc(C2C(C#N)=C(/N=C/c3ccccc3)Oc3c2ccc2ccccc32)cc1 (centres undefined)	inactive
Cc1cnc(C(=O)Nc2nc3ccc(S(=O)(=O)Nc4ccc(C5(C(F)(F)F)CC5)cc4)cc3[nH]2)cn1	inactive
O=[N+]([O-])CC(c1ccccc1)c1c[nH]c2ccccc12 (centres undefined)	inactive
Cc1ccc(S(=O)(=O)NNC(=O)/C(=C\c2ccc(Cl)cc2)c2nc3ccccc3s2)cc1	inactive
CN1CCN(C(=O)[C@]23CCC(C)(C)C[C@H]2C2=CC[C@@H]4[C@@]5(C)C/C(=C/c6cccnc6)C(=O)C(C)(C)[C@@H]5CC[C@@]4(C)[C@]2(C)CC3)CC1	inactive
COc1ccc(/C=C/c2nc(Nc3ccc(S(=O)(=O)Nc4nc(C)cc(C)n4)cc3)c3ccccc3n2)cc1	inactive
O=C(O)c1ccc2c(c1)C(=O)N(Cc1ccccc1)C2=O	inactive
Oc1c(Cl)cc(Cl)c(Cl)c1CNCCNCc1c(O)c(Cl)cc(Cl)c1Cl	active
